Sourced from patent US9920339B2

System: Chromobacterium violaceum ω-transaminase (SEQ ID NO: 8)
Assay: ω-transaminase enzyme activity assay, amine substrate plus pyruvate to L-alanine (cell free extract)
Assay type: biochemical
Details: forward (amine-forming) direction, inferred from the reverse assay
Endpoint: accepted as substrate, concluded from the reversibility of the ω-transaminase activity

{"Smiles Text": "NCCCCC=O", "Result": "accept"}
{"Smiles Text": "O=CCCCCO", "Result": "accept"}
{"Smiles Text": "CC(=O)NCCCCC=O", "Result": "accept"}
